target: Cytochrome P450 2C9 (Homo sapiens)
assay.details: Cytochrome P450 Family 2 Subfamily C Member 9 (CYP2C9) small molecule antagonists: luciferase reporter qHTS assay (AID 1671198); also: nearly all actives have a fitted effect of over 50% in size
recorded.conditions: P450-Glo CYP2C9 enzyme assay, luciferin luminescence; series mostly up to 115 µM
Results filed as inconclusive are left out. Active and inactive are the calls of the source. Calls follow the shape of the dose curve; as a rule, active = well fitted inhibition curve with a large enough effect in the repeat runs; inconclusive = weak or mixed curves; inactive = no such curve, though single readings can be large or run the other way.
In this exercise, the only acceptable responses are active, inactive

Please state the recorded outcome for this compound: `CC(C)(C)C1=CC(=O)C(C(C)(C)C)=CC1=O` active

Please state the recorded outcome for this compound: `c1ccc(C[P+](c2ccccc2)(c2ccccc2)c2ccccc2)cc1` inactive

Please state the recorded outcome for this compound: `Cn1ccnc1` inactive

Please state the recorded outcome for this compound: `COc1ccc(OC)c(N=Nc2c(O)ccc3ccccc23)c1` active

Please state the recorded outcome for this compound: `Nc1ccc(Oc2cccc(Oc3ccc(N)cc3)c2)cc1` active

Please state the recorded outcome for this compound: `Clc1ccc2c(Cl)ccnc2c1` inactive

Please state the recorded outcome for this compound: `CO[Si](OC)(c1ccccc1)c1ccccc1` active

Please state the recorded outcome for this compound: O=C(Nc1ccc([N+](=O)[O-])cc1)Nc1ccc([N+](=O)[O-])cc1 (tested in a mixture with another compound) inactive

Please state the recorded outcome for this compound: `[Cl][Dy]([Cl])[Cl]` inactive

Please state the recorded outcome for this compound: `CCSCC` inactive

Please state the recorded outcome for this compound: `CCCCCN=C(N)N/N=C/c1c[nH]c2ccc(OC)cc12` active

Please state the recorded outcome for this compound: `C=CCc1cc(S(=O)(=O)c2ccc(O)c(CC=C)c2)ccc1O` active

Please state the recorded outcome for this compound: `CC(O)(c1ccc(Cl)cc1)c1ccc(Cl)cc1` active
